Molecular target: FAAH (Rattus norvegicus)
Construct: Preparation of Rat Brain Membranes Preparations (FAAH Enzyme Solution); from tissue; host or cells: rat cerebrum (brain membrane preparation)
Sequence (P97612 1-579): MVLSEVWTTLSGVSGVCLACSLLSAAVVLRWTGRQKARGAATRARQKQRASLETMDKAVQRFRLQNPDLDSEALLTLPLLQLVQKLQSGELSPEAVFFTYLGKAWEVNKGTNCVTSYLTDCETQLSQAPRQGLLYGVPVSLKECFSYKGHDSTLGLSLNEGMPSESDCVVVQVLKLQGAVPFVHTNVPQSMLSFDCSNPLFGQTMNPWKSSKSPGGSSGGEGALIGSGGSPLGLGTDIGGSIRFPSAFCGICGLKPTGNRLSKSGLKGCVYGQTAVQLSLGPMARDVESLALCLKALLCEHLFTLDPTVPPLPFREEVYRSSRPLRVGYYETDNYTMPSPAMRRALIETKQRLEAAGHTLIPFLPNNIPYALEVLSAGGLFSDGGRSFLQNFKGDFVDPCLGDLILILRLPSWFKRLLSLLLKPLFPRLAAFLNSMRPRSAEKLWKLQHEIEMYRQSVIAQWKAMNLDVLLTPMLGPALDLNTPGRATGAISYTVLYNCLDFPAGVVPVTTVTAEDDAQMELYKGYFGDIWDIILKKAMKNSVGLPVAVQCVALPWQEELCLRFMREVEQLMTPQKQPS
Experiment: Determination of FAAH inhibitory activity in rat (rat brain membrane preparations, [3H]-anandamide hydrolysis)
Format: biochemical
Conditions: rat brain membrane preparations; 100 nM test substance; read-out: FAAH Inhibition, Inhibition Rate at 100 nM
experimentalEndpoint: inhibition at 0.1 µM (%)

Worked examples, 10 compounds total:
mol: Cn1c(=O)n(C(=O)N2CCCC2)c2cnc(-c3cncc(F)c3)nc21
inhibition at 0.1 µM [%]: 101
//
mol: COc1ccc(CCc2ncc3c(n2)n(C)c(=O)n3C(=O)N2CCCC2)cc1
inhibition at 0.1 µM [%]: 93
//
mol: COc1cccc(-c2ncc3c(n2)n(C)c(=O)n3C(=O)N(C)Cc2cccc(F)c2)c1
inhibition at 0.1 µM [%]: 99
//
mol: CCN(C)C(=O)n1c(=O)n(C)c2nc(Cc3cccc(C)c3)ncc21
inhibition at 0.1 µM [%]: 97
//
mol: COc1cccc(-c2ncc3c(n2)n(C)c(=O)n3C(=O)N(C)CCOc2ccc(Cl)cc2)c1
inhibition at 0.1 µM [%]: 116
//
mol: Cc1ccc(CCc2ncc3c(n2)n(C(=O)N(C)C)c(=O)n3C)cc1C
inhibition at 0.1 µM [%]: 102
//
mol: COc1ccc(/C=C/c2ncc3c(n2)n(C)c(=O)n3C(=O)N2CCCC2)cc1
inhibition at 0.1 µM [%]: 99
//
mol: COCc1ncc2c(n1)n(C)c(=O)n2C(=O)N1CC(c2ccc(Cl)cc2)C1
inhibition at 0.1 µM [%]: 101
//
mol: Cn1c(=O)n(C(=O)N2CCN(c3ccccc3)CC2)c2cnc(-c3ccccc3)nc21
inhibition at 0.1 µM [%]: 101
//
mol: COCc1ncc2c(n1)n(C)c(=O)n2C(=O)N1CC[C@@H](Oc2cccc(Cl)c2)C1
inhibition at 0.1 µM [%]: 99

1 = COc1cccc(-c2ncc3c(n2)n(C)c(=O)n3C(=O)N2CC[C@@H](OC)C2)c1
2 = Cn1c(=O)n(C(=O)N2CCC2)c2nc(CCc3ccc(OCC(F)F)cc3)ncc21
3 = Cn1c(=O)n(C(=O)N2CCCC2)c2cnc(/C=C/c3ccc(F)cc3)nc21
Qu. Task for the reader: rank each entry by its inhibition at 0.1 µM, from the minimum upward. Enter labels, ranked according to the request.
Ans. 1, 2, 3

These entries and their values trace back to patent US8735406B2.
